# System: Fibroblast
# PROCEDURE_TEXT: Incucyte cell viability with human fibroblast; note: unitless GR value; below 1 slowed growth and below 0 cell loss
# Assay type: toxicity, cell-based
# RECORDED_CONDITIONS: 12 h, 10 µM, compound concentration 10 uM, replicate number 2
READOUT_LABEL: Growth Rate

[[record]]
molecular_string = "CCOC(=O)N1CCC(c2cc(O)n3nc(C)c(-c4ccc(F)cc4)c3n2)CC1"
observed_result = 0.8

[[record]]
molecular_string = "CN(C)CCCNc1ccnc(Nc2cccc(Cl)c2)n1"
observed_result = 0.34

[[record]]
molecular_string = "C#Cc1cnc2[nH]cc(-c3cccc4c3CCN4C(=O)[C@@H]3CCCN3C#N)c2c1"
observed_result = -0.69

[[record]]
molecular_string = "CC(C)(C)c1ccc(-c2coc3ccc(-c4cn[nH]c4)nc23)cc1"
observed_result = -0.62

[[record]]
molecular_string = "CN(C)[C@H]1CC[C@H](Nc2ncc3ncnc(Nc4ccc(F)c(Cl)c4)c3n2)CC1"
observed_result = -0.1

[[record]]
molecular_string = "COc1ccc(-n2nc(C(F)(F)F)cc2-c2ccc(Cl)cc2)cc1"
observed_result = 0.09

[[record]]
molecular_string = "CC[C@H](C(=O)Nc1ccccc1N1CCCC1)c1ccccc1"
observed_result = 0.33

[[record]]
molecular_string = "CN1CCC(F)(Cn2cnc(-c3ccc(F)cn3)c2-c2ccnc3[nH]ccc23)CC1"
observed_result = 0.78


###

# Tested on: U2OS
# PROCEDURE_TEXT: Incucyte cell viability with U2OS; note: unitless GR value; below 1 slowed growth and below 0 cell loss
# Type: toxicity, cell-based
# RECORDED_CONDITIONS: human, 24 h, 10 µM, compound concentration 10 uM, replicate number 1
The following compounds are shown together with reported Growth Rate values.
READOUT_LABEL: Growth Rate

[[record]]
compound = "O=S(=O)(Nc1ccc(C(O)(C(F)(F)F)C(F)(F)F)cc1)c1cccs1"
test_system = "U2OS"
observed_result = 0.8

[[record]]
compound = "CC(=O)c1c(C)c2cnc(Nc3ccc(N4CCN(CCCCNC(=O)COc5cccc6c5C(=O)N(C5CCC(=O)NC5=O)C6=O)CC4)cn3)nc2n(C2CCCC2)c1=O (configuration not stated)"
test_system = "U2OS"
observed_result = 1

[[record]]
compound = "CS(=O)(=O)NC(=O)CCC/C=C\\C[C@H]1C(=O)C[C@@H](O)[C@@H]1/C=C/[C@@H](O)COc1ccccc1"
test_system = "U2OS"
observed_result = 0.87

[[record]]
compound = "CCCNc1ccc2ncc(-c3ccncc3)n2n1"
test_system = "U2OS"
observed_result = 0.15

[[record]]
compound = "Cc1[nH]c2c(N3CCCCC3)c(-c3ccccc3)nn2c(=O)c1-c1ccc(O)cc1"
test_system = "U2OS"
observed_result = 0.78

[[record]]
compound = "Cc1[nH]nc2ccc(-c3cncc(OCC(N)Cc4ccccc4)c3)cc12 (configuration not stated)"
test_system = "U2OS"
observed_result = 0.35

[[record]]
compound = "CC(=O)Oc1ccc2c(c1)[C@@]1(C)CCC[C@](C)(C(=O)OC(=O)[C@@]3(C)CCC[C@]4(C)c5cc(OC(C)=O)ccc5CC[C@@H]34)[C@@H]1CC2 [ACETYL PODOCARPIC ACID ANHYDRIDE]"
test_system = "U2OS"
observed_result = 0.84

[[record]]
compound = "CN(Cc1cccc(F)c1CNc1cc(F)c(S(=O)(=O)Nc2cscn2)c(F)c1)C(C)(C)C"
test_system = "U2OS"
observed_result = 0.9

[[record]]
compound = "Cc1cccc(F)c1C(=O)Nc1cnc(-c2cc3c(cc2Cl)OC(F)(F)O3)cn1"
test_system = "U2OS"
observed_result = 0.8

[[record]]
compound = "COc1cc(C(=O)NC2CCN(C)CC2)ccc1Nc1ncc(C(F)(F)F)c(NCc2ccc(C)cc2N(C)S(C)(=O)=O)n1.O=CO.O=CO"
test_system = "U2OS"
observed_result = -0.27

[[record]]
compound = "O[C@]1(C(F)(F)F)CCCC[C@H]1Nc1ccc(F)cc1"
test_system = "U2OS"
observed_result = 0.74

[[record]]
compound = "Cn1c(C2(NC(=O)c3ccc4c(C5CCCC5)c(-c5ncc(Br)cn5)n(C)c4c3)CCC2)nc2ccc(/C=C/C(=O)O)cc21"
test_system = "U2OS"
observed_result = 0.7


###

# Test system: Fibroblast
# PROCEDURE_TEXT: Incucyte cell viability with human fibroblast; note: unitless GR value; below 1 slowed growth and below 0 cell loss
# Assay type: toxicity, cell-based
# RECORDED_CONDITIONS: 6 h, 10 µM, compound concentration 10 uM, replicate number 2
The following molecules are shown together with reported Growth Rate values.
READOUT_LABEL: Growth Rate

[[record]]
molecule = "Cc1c(N2CCNCC2)nc2ccc(Br)cc2c1C(=O)NC[C@H](CCC(=O)O)c1ccccc1Cl [BAY-403]"
observed_result = 0.04

[[record]]
molecule = "COCCOCn1c(S(C)(=O)=O)nc2c1c(=O)n(C)c(=O)n2C"
observed_result = -0.97

[[record]]
molecule = "CSc1nc2c(c(=O)n(C)c(=O)n2C)n1C"
observed_result = -0.57

[[record]]
molecule = "O=C(O)c1ccnc(N2CC(O)(c3ccc(OCc4c(-c5c(Cl)cccc5Cl)noc4C4CC4)cc3Cl)C2)c1 [CILOFEXOR]"
observed_result = -0.03

[[record]]
molecule = "Cc1nc(Nc2cnn(C3CCNCC3)c2)nc2c1N(C)C(=O)c1cc3ccccc3cc1N2C"
observed_result = 0.56

[[record]]
molecule = "O=C(Nc1ccc(Cl)c(-c2ccccn2)c1)c1cccc(COc2ccc(Br)cc2CNCCO)c1.O=CO"
observed_result = 0.09

[[record]]
molecule = "Cc1c(C(=O)Nc2cccc(C(F)(F)F)c2)cc(-c2ccccc2)n1CCCN1CCOCC1.Cl"
observed_result = 0.1

[[record]]
molecule = "CC(C)(O)c1cnc(N2C[C@@]3(CCC[C@](C)(Cn4cnc5ccc(C#N)cc54)C3)OC2=O)cn1 [GSK2798745]"
observed_result = -1

[[record]]
molecule = "O=C(Nc1ccccc1Br)N[C@@H]1CCN(c2ccc(C(F)(F)F)cn2)C1 [SB-705498]"
observed_result = -0.3

[[record]]
molecule = "FC(F)(F)c1ccccc1-c1cc(C(F)(F)F)c2[nH]c(C3=NOC4(CCCCC4)C3)nc2c1"
observed_result = -0.79

[[record]]
molecule = "COc1cc(-c2cn(C)c(=O)c3cnccc23)c(OC)cc1CN(C)C"
observed_result = 0.69

[[record]]
molecule = "CC(C)S(=O)(=O)c1ccccc1Nc1nc(N[C@@H]2CCCN(CCCCCCCNC(=O)COc3cccc4c3C(=O)N(C3CCC(=O)NC3=O)C4=O)C2)ncc1Cl (stereo partly drawn)"
observed_result = 0.14

[[record]]
molecule = "O=C(NCc1cccnc1OCC(F)(F)F)c1cncc(-c2ccc(Cl)cc2)c1"
observed_result = -1

[[record]]
molecule = "CN1CC[C@@]23CCCC[C@@H]2[C@@H]1Cc1ccc(O)cc13.O=C(O)C(O)C(O)C(=O)O"
observed_result = -0.93

[[record]]
molecule = "COCCNc1cc(NC(=O)N2CCCc3cc(CN4CCOCC4=O)c(C=O)nc32)ncc1C#N"
observed_result = -1

[[record]]
molecule = "OCC1OC(n2cnc3cc(Cl)c(Cl)cc32)C(O)C1O (stereo not drawn)"
observed_result = 0.4

[[record]]
molecule = "COc1cc2ncnc(N[C@H](C)c3ccccc3)c2cc1OC1CCN(S(C)(=O)=O)CC1.Cl"
observed_result = 0.39

[[record]]
molecule = "Cc1cc(Cn2c(N3CC4(CNC4)C3)nc3c(N4CCN(C)CC4)cc(Cl)cc32)cc(C)c1F"
observed_result = -1


###

# System: U2OS
# PROCEDURE_TEXT: Incucyte cell viability with U2OS; note: unitless GR value; below 1 slowed growth and below 0 cell loss
# Type: toxicity, cell-based
# RECORDED_CONDITIONS: human, 24 h, 10 µM, compound concentration 10 uM, replicate number 2
Quick rule: Growth Rate of at least 0.8 means condition met, below that means condition not met.

[[record]]
compound = "CC1CCN(C(=O)[C@H](CCn2cccc2C#N)NS(=O)(=O)c2cccc3[nH]ccc23)CC1"
class_name = "condition met"

[[record]]
compound = "c1ccc2c(c1)SCc1c-2[nH]c2ccccc12"
class_name = "condition not met"

[[record]]
compound = "CC(=O)Nc1c(F)cc(C(=O)N[C@H]2CC[C@H](O)CC2)cc1O[C@@H](C)c1ccccc1"
class_name = "condition met"

[[record]]
compound = "O=C(O)[C@]1(Cc2cccc(Nc3nccs3)n2)CC[C@@H](Oc2cccc(Cl)c2F)CC1"
class_name = "condition not met"

[[record]]
compound = "COc1ccccc1Nc1nc(-c2nn(Cc3c(F)cc(OCCCO)cc3F)c3ccccc23)ncc1OC"
class_name = "condition met"

[[record]]
compound = "Cc1cccc(-c2nn3c(c2-c2ccnc4ccc(C(N)=O)cc24)CCC3)n1"
class_name = "condition not met"

[[record]]
compound = "O=C(Cc1ccccc1[N+](=O)[O-])Nc1ccc(-c2ccc(C(O)(C(F)(F)F)C(F)(F)F)cc2F)cc1"
class_name = "condition not met"

[[record]]
compound = "COc1cc2ncnc(Nc3ccc(F)c(Cl)c3)c2cc1OCCN(C)C[C@H](C)O"
class_name = "condition not met"

[[record]]
compound = "CN1CCCN(C(=O)c2cccc(-c3ccc(/C=C4/C(=O)Nc5ccc(Cl)cc54)o3)c2)CC1"
class_name = "condition not met"

[[record]]
compound = "O=C(Nc1cc(C(F)(F)F)cc(C(F)(F)F)c1)c1cc(Cl)ccc1O"
class_name = "condition not met"

[[record]]
compound = "CC(C)(C)C1CCc2c(sc(NC(=O)c3ccco3)c2C(=O)O)C1 (stereo not drawn)"
class_name = "condition met"

[[record]]
compound = "NCc1ccc(OCCCc2sc(-c3ccc4c(c3)/C(=N/Nc3nc5ccccc5s3)CCC4)nc2C(=O)O)cc1"
class_name = "condition not met"

[[record]]
compound = "COc1nc2ccc([C@@](O)(c3ccccc3)C3CCN(C(C)=O)CC3)cc2c(Cl)c1Cc1ccc(-n2cccn2)cc1"
class_name = "condition not met"


Where these numbers come from: ChEMBL document CHEMBL5303304
